target: Human pyruvate kinase R (PKR) (Homo sapiens); construct: Human pyruvate kinase R (PKR), residues 14-574; 6x-His (N, cleaved yes); 8x-Arg (N, cleaved yes); SUMO (N, cleaved yes); host or cells: E. coli; assay: Biochemical assay for activation of pyruvate kinase R (Kinase-Glo luminescence, ATP generation); details: 0.1 nM PKR, 2 mM FBP, 0.3 mM ADP, 0.1 mM PEP
Sequence (P30613 14-574): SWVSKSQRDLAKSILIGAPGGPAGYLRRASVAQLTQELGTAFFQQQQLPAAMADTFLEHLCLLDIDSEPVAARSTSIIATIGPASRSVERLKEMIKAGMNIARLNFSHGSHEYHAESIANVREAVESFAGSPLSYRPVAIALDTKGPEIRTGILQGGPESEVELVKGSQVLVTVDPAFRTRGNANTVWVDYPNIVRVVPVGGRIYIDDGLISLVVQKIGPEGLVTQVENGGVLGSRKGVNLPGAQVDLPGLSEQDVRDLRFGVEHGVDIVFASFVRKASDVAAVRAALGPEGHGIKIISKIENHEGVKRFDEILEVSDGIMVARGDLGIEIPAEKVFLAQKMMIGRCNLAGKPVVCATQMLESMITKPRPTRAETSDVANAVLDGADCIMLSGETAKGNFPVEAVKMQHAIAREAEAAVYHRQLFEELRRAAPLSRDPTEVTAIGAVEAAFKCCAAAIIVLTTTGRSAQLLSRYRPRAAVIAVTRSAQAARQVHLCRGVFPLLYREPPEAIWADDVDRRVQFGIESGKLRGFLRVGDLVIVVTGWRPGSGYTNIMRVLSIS
Measured AC50 determines class: Low: < 0.03 µM; Medium: ≥ 0.03 µM and < 0.2 µM; High: ≥ 0.2 µM

Previously resolved entries follow.
[[record]]
molecule = "Cc1ccccc1[C@@H](N)C(=O)N1Cc2cn(S(=O)(=O)c3ccc4ncsc4c3)nc2C1 [Compound 59]"
class_assignment = "Medium"

[[record]]
molecule = "Cc1cc(C(N)C(=O)N2Cc3cn(S(=O)(=O)c4ccc5ncsc5c4)nc3C2)ccc1F (racemic) [Compound 39]"
class_assignment = "Medium"

[[record]]
molecule = "O=C([C@H](CO)c1ncccc1F)N1Cc2cn(S(=O)(=O)c3ccc4ncccc4c3)nc2C1 (single isomer, unassigned) [Compound 103]"
class_assignment = "High"

[[record]]
molecule = "C[C@@H](O)[C@H](C(=O)N1Cc2cn(S(=O)(=O)c3ccc4ncsc4c3)nc2C1)c1ccccc1 [Compound 6]"
class_assignment = "High"

[[record]]
molecule = "N[C@@H](C(=O)N1Cc2cn(S(=O)(=O)c3ccc4c(c3)NCCO4)nc2C1)c1ccccc1F [Compound 57]"
class_assignment = "Low"

[[record]]
molecule = "O=C(N1Cc2cn(S(=O)(=O)c3ccc4ncsc4c3)nc2C1)[C@@]1(c2ccccc2)CCCN1 (single isomer, unassigned) [Compound 61]"
class_assignment = "High"

[[record]]
molecule = "C[C@](N)(C(=O)N1Cc2cn(S(=O)(=O)c3ccc4ncsc4c3)nc2C1)c1ccccc1 [Compound 60]"
class_assignment = "Medium"

[[record]]
molecule = "O=C([C@H](CO)c1ncccc1F)N1Cc2cn(S(=O)(=O)c3ccc(OC(F)F)cc3)nc2C1 (single isomer, unassigned) [Compound 89]"
class_assignment = "Low"

[[record]]
molecule = "O=C([C@@H](CO)c1ccccc1)N1Cc2cn(S(=O)(=O)c3ccc(OC(F)F)cc3)nc2C1 (single isomer, unassigned) [Compound 8]"
class_assignment = "High"

[[record]]
molecule = "C[C@@H](O)[C@H](C(=O)N1Cc2cn(S(=O)(=O)c3ccc(OC(F)F)cc3)nc2C1)c1ccccc1 [Compound 11]"
class_assignment = "High"


Sort into band: CC(CO)(C(=O)N1Cc2cn(S(=O)(=O)c3ccc4ncsc4c3)nc2C1)c1ccccn1 (single isomer, unassigned) [Compound 43] Medium

Sort into band: O=C([C@H](CO)c1ccccc1)N1Cc2cn(S(=O)(=O)c3cccc(OC(F)F)c3)nc2C1 [Compound 83] Low

Sort into band: C[C@@H](O)[C@@H](C(=O)N1Cc2cn(S(=O)(=O)c3cnc4c(c3)OCCO4)nc2C1)c1ccccc1Cl (single isomer, unassigned) [Compound 70] Low

Where do the numbers come from? From patent US20230159538A1.
